Assay: Microsomal stability assay, rat liver microsomes
Settings: female, Sprague-Dawley, rat, liver microsomes, pH 7.4, Microsomal stability assays: Clearance
Property Name: log10 of CLint scaled at 0.08 µM (log10 of the value in mL/min/kg)
# values: log10(CLint scaled at 0.08 µM), units mL/min/kg

Which log10 of CLint scaled at 0.08 µM is listed for CC(Cc1ccc(F)cc1)NCCCc1ccc([N+](=O)[O-])cc1 (stereo not drawn) ?
2.08

Which log10 of CLint scaled at 0.08 µM is listed for CC(Cc1ccc(-c2cncnc2)cc1)NCCCc1ccc(F)cc1 (stereo not drawn) ?
1.17

Which log10 of CLint scaled at 0.08 µM is listed for CC(Cc1ccc(NC=O)cc1)NCCCc1ccc(F)cc1 (stereo not drawn) ?
1.12

Which log10 of CLint scaled at 0.08 µM is listed for CC(Cc1ccc(C(F)(F)F)cc1)NCCCc1ccncc1 (stereo not drawn) ?
1.92

Which log10 of CLint scaled at 0.08 µM is listed for CC(Cc1ccc(-c2cccnc2)cc1)NCCCc1ccc(F)cc1 (stereo not drawn) ?
1.89

====

Biological target: VMAT2 (Rattus norvegicus (Rat))
Assay: [3H]Dopamine ([3H]DA) uptake assay, vesicular preparation
Format: biochemical
Settings: [3H]DA uptake, rat; read-out: VMAT2 (rat) Inhibition: Mean Ki ± Standard Deviation
Property Name: pKi
The quantity pKi is defined as the negative base-10 logarithm of the molar concentration.

• CC(Cc1ccccc1)NCCCc1ccc(Br)cc1 (centres unmarked) [Compound 218] = 7.85
• CS(=O)(=O)c1ccc(CCCNC(CF)Cc2ccc(F)cc2)cc1 (centres unmarked) [Compound 137] = 6.74
• FCC(Cc1ccc(F)cc1)NCCCc1ccncc1 (centres unmarked) [Compound 142] = 6.93
• CC(Cc1ccccc1)NCCCc1ccc(I)cc1 (centres unmarked) [Compound 214] = 8.16
• OCC(Cc1ccc(F)cc1)NCCCc1ccc(Br)cc1 (centres unmarked) [Compound 154] = 7.16

Which pKi is listed for CC(Cc1ccc(F)cc1)NCCCc1ccc2[nH]ccc2c1 (centres unmarked) [Compound 55] ?
7.56

Which pKi is listed for OCC(Cc1ccc(F)cc1)NCCCn1cccn1 (centres unmarked) [Compound 130] ?
6.20

Which pKi is listed for CC(Cc1ccc(N)cc1)NCCCc1ccc(F)cc1 (centres unmarked) [Compound 110] ?
7.72

====

Target: VMAT2 (Rattus norvegicus (Rat), UniProt Q01827)
Assay: [3H]Dopamine ([3H]DA) uptake assay, vesicular preparation
Format: biochemical
Details: [3H]DA uptake, rat; read-out: VMAT2 (rat) Inhibition: Mean Ki ± Standard Deviation
Property Name: pKi
The quantity pKi is defined as the negative base-10 logarithm of the molar concentration.

// worked examples, pKi included
* CC(Cc1ccc(N)cc1)NCCCc1ccccc1 (centres unmarked) | 7.57
* CC(Cc1ccc(F)cc1)NCCCc1ccc(N(C)C)cc1 (centres unmarked) | 6.93

Which pKi is listed for FCC(Cc1ccc(-c2cncnc2)cc1)NCCCc1ccc(F)cc1 (centres unmarked) ?
8.26

Which pKi is listed for CCC(Cc1ccccc1)NCCCc1ccc(O)cc1 (centres unmarked) ?
7.42

Which pKi is listed for CC(Cc1ccccc1)NCCCc1ccc(N)cc1 (centres unmarked) ?
7.39

Which pKi is listed for FCC(Cc1ccc(F)cc1)NCCCc1ccnc2ccccc12 (centres unmarked) ?
7.15

Which pKi is listed for CC(Cc1ccc(Br)cc1)NCCCc1ccncc1 (centres unmarked) ?
7.28

====

Biological target: VMAT2 (Rattus norvegicus (Rat))
Assay: [3H]Dopamine ([3H]DA) uptake assay, vesicular preparation
Assay type: biochemical
Conditions: rat striatal synaptic vesicles; read-out: [3H]DA uptake (Ki) VMAT2
Property Name: pKi
The quantity pKi is defined as the negative base-10 logarithm of the molar concentration.

* CC(Cc1ccc(Br)cc1)NCCCc1ccccc1 (stereo not shown) [Compound 11] | 8.10
* CC(Cc1ccccc1)NCCc1ccccc1 (stereo not shown) [Compound 1] | 7.20
* CC(Cc1ccc(O)cc1)NCCCc1ccccc1 (stereo not shown) [Compound 37] | 7.48
* COc1ccc(CCCNC(C)CCc2ccc(OC)cc2)cc1 (stereo not shown) [Compound 53] | 7.62
* COc1ccc(CC(C)N(C)CCCc2ccccc2)cc1 (stereo not shown) [Compound 30] | 6.57
* CC(Cc1ccccc1)NCCCCc1ccccc1 (stereo not shown) [Compound 15] | 8.52

Consider the record given below.
Which pKi is listed for COc1ccc(CC(C)N(C)CCc2ccccc2)cc1 (stereo not shown) [Compound 25] ?
6.34

====

Molecular target: hERG channel (Homo sapiens (Human))
Sequence (Q12809 whole entry): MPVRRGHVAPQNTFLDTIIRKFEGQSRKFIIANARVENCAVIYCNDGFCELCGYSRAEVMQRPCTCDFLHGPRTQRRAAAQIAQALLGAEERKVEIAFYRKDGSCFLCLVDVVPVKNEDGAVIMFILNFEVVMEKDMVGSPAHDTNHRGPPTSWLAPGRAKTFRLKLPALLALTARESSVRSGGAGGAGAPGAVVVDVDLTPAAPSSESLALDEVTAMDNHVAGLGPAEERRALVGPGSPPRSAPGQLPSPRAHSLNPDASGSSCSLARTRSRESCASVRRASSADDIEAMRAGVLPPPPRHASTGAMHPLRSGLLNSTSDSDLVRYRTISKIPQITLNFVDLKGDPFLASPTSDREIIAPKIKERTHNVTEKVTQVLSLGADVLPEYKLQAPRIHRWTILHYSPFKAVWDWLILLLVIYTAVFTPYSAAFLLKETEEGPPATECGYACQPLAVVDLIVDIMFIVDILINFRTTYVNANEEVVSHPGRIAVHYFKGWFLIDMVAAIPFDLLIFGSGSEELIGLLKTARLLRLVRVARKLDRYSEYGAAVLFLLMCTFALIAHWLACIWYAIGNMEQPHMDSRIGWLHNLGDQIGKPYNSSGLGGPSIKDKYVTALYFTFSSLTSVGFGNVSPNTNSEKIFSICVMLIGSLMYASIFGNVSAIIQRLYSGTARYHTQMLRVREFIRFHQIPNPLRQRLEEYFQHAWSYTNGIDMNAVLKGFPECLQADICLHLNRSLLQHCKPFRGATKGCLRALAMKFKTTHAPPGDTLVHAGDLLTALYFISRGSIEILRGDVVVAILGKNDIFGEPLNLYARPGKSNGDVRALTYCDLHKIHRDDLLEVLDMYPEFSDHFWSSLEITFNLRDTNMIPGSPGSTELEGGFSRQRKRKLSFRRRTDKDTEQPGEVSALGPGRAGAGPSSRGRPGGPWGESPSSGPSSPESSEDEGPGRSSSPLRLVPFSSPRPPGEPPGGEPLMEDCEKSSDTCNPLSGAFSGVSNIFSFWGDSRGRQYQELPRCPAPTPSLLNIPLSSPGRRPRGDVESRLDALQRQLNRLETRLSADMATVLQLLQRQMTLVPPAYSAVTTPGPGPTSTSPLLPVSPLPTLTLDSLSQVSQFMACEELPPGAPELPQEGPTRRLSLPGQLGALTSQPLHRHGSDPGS
Assay: [3H]Dofetilide binding assay, HEK-293 cell membrane preparation
Details: [3H]dofetilide, HEK-293 cell membranes; read-out: hERG Binding: Mean Ki ± Standard Deviation
Property Name: pKi
The quantity pKi is defined as the negative base-10 logarithm of the molar concentration.

// worked examples, pKi included
- CC(Cc1ccc(F)cc1)NCCCc1ccc(F)cc1 (stereo not drawn): 6.10
- CC(Cc1ccc(F)cc1)NCCCc1ccc(Cl)cc1 (stereo not drawn): 6.33
- FCC(Cc1ccccc1)NCCCc1ccccc1 (stereo not drawn): 4.77
- FCC(Cc1ccc(F)cc1)NCCCc1ccccc1 (stereo not drawn): 5.13
- CC(Cc1ccncc1)NCCCc1ccc(O)cc1 (stereo not drawn): 5.29

Which pKi is listed for CC(Cc1ccc(F)c(F)c1)NCCCc1ccc(N)cc1 (stereo not drawn) ?
5.50

Which pKi is listed for CC(Cc1ccc(N)cc1)NCCCc1ccc(F)cc1 (stereo not drawn) [Compound 112] ?
5.60

Which pKi is listed for CC(Cc1ccc(-c2cncnc2)cc1)NCCCc1ccc(F)cc1 (stereo not drawn) ?
6.40

Which pKi is listed for CC(Cc1ccc(C(F)(F)F)cc1)NCCCc1ccc(N)cc1 (stereo not drawn) ?
6.04

Which pKi is listed for CC(Cc1ccc([N+](=O)[O-])cc1)NCCCc1ccc(Br)cc1 (stereo not drawn) ?
7.10

Which pKi is listed for CC(Cc1ccccc1)NCCCc1ccc(C(F)(F)F)cc1 (stereo not drawn) ?
6.10

Which pKi is listed for CC(Cc1ccc(Br)cc1)NCCCc1ccc(I)cc1 (stereo not drawn) ?
6.22

Which pKi is listed for CC(Cc1ccc(NC=O)cc1)NCCCc1ccccc1 (stereo not drawn) ?
5.75

Which pKi is listed for FCC(Cc1ccccc1)NCCCc1ccc(F)cc1 (stereo not drawn) ?
5.32

Which pKi is listed for CC(Cc1ccc(F)cc1)NCCCc1ccc(-c2ccnn2C)cc1 (stereo not drawn) ?
5.66

Which pKi is listed for CC(Cc1ccc(C(F)(F)F)cc1)NCCCc1ccncc1 (stereo not drawn) [Compound 165] ?
5.72

Which pKi is listed for CC(Cc1ccccc1)NCCCc1ccc(I)cc1 (stereo not drawn) [Compound 213] ?
6.19

Which pKi is listed for CC(Cc1ccc(NC=O)cc1)NCCCc1ccc(F)cc1 (stereo not drawn) [Compound 87] ?
6.13

Which pKi is listed for CC(Cc1ccccc1)NCCCc1ccncc1 (stereo not drawn) ?
5.07

Which pKi is listed for CC(Cc1ccc(C(F)(F)F)cc1)NCCCc1ccc(O)cc1 (stereo not drawn) ?
6.60

Which pKi is listed for COc1ccc(CC(C)NCCCc2ccc(N)cc2)cc1 (stereo not drawn) ?
5.37

====

Target: hERG channel (Homo sapiens (Human))
Assay: [3H]Dofetilide binding assay, HEK-293 cell membrane preparation
Settings: [3H]dofetilide, HEK-293 cell membranes; read-out: hERG Binding: Mean Ki ± Standard Deviation
Recorded log10(Ki) values for a group of compounds are listed next.
# values: log10(Ki), units nM

// worked examples, log10(Ki) included
- CC(Cc1ccccc1)NCCCc1ccc(Br)cc1 (centres unmarked): 2.62
- CC(Cc1ccccc1)NCCCc1ccc(-c2cccnc2)cc1 (centres unmarked): 3.49
- CC(=O)Nc1ccc(CCCNC(C)Cc2ccc(F)cc2)cc1 (centres unmarked): 4.00
- CC(Cc1ccc(F)cc1)NCCCc1c[nH]c2ccccc12 (centres unmarked): 3.34
- CC(Cc1ccc(F)c(F)c1)NCCCc1ccc([N+](=O)[O-])cc1 (centres unmarked): 1.75
- CC(Cc1ccc(-c2cccnc2)cc1)NCCCc1ccc(F)cc1 (centres unmarked): 2.83

Which log10(Ki) is listed for CC(Cc1ccc([N+](=O)[O-])cc1)NCCCc1ccc(F)cc1 (centres unmarked) [Compound 120] ?
2.11

Which log10(Ki) is listed for FCC(Cc1ccc(-c2cccnc2)cc1)NCCCc1ccc(F)cc1 (centres unmarked) ?
3.83

====

Assay: Microsomal stability assay, human liver microsomes
Property Name: Microsomal stability assays: Clearance (mL/min/kg)
Write the answer as a number in mL/min/kg, unit excluded.

// worked examples, Microsomal stability assays: Clearance included
* CC(Cc1ccc(NC=O)cc1)NCCCc1ccc(F)cc1 (centres unmarked) | 14
* CC(Cc1ccc(N)cc1)NCCCc1ccc(F)cc1 (centres unmarked) | 23.5

Consider the record given below.
Which Microsomal stability assays: Clearance is listed for CC(Cc1ccccc1)NCCCc1ccc(I)cc1 (centres unmarked) [Compound 214] ?
17.6
